TARGET: Rat recombinant PDE10a (rPDE10a) (Rattus norvegicus (Rat), UniProt Q9QYJ6)
Sequence (Q9QYJ6 whole entry): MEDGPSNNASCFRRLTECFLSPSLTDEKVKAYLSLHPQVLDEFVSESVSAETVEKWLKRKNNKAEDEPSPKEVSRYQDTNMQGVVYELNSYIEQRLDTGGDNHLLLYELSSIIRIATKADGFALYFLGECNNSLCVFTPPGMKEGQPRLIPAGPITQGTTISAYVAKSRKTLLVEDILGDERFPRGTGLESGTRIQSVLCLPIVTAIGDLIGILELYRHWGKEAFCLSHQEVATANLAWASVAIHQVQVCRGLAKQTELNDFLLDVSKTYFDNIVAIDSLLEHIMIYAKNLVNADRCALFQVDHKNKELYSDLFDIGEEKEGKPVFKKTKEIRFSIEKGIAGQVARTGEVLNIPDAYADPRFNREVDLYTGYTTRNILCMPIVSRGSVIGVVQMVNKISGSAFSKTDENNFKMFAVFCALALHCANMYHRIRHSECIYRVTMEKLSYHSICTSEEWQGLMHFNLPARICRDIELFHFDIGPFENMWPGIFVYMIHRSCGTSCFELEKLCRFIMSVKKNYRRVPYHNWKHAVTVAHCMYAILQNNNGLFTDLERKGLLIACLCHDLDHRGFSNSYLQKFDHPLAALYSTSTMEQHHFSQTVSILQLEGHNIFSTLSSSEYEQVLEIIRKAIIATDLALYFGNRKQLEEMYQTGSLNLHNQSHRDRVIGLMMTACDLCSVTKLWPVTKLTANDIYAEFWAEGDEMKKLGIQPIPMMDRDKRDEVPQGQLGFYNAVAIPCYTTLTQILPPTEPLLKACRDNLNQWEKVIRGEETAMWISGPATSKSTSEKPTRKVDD
MEASUREMENT DESCRIPTION: In vitro assay PDE10a (rat recombinant PDE10a, SPA)
EXPERIMENTAL CONTEXT: 60 nM cAMP, 60 min at rt, read-out: rPDE10a2 IC50
Counter-ions that a name gives are not always drawn.
ENDPOINT LABEL: pIC50
Note on units: pIC50 is unitless, being -log10 of a concentration expressed in mol/L.

Q: Return pIC50 for the following molecule: O=C(NCCO)Nc1ccc(-c2cnc(N3CCOCC3)c3nc(/C=C/c4ccc5ccccc5n4)cn23)cc1
Ans: 7.34

Q: Return pIC50 for the following molecule: O=C(O)c1cncc(-c2cnc(N3CCOCC3)c3nc(/C=C/c4ccc5ccccc5n4)cn23)c1
Ans: 8.70

Q: Return pIC50 for the following molecule: c1ccc2nc(OCc3cn4c(-c5ccc(N6CCNCC6)nc5)cnc(N5CCOCC5)c4n3)ncc2c1 [Cpd 124, trifluoroacetic acid salt]
Ans: 6.91

Q: Return pIC50 for the following molecule: Nc1ccc(-c2cnc(N3CCOCC3)c3nc(COc4ccc5ccccc5n4)cn23)cn1
Ans: 8.10

Q: Return pIC50 for the following molecule: O=C1CN(c2ncc(-c3ccc(N4CCNCC4)nc3)n3cc(COc4ccc5ccccc5n4)nc23)CCN1 [Cpd 115, trifluoroacetic acid salt]
Ans: 7.40

Q: Return pIC50 for the following molecule: O=C(O)CCNC(=O)c1ccc(-c2cnc(N3CCOCC3)c3nc(/C=C/c4ccc5ccccc5n4)cn23)cc1
Ans: 8.10

Q: Return pIC50 for the following molecule: Oc1nc2ncc(-c3cnc(N4CCOCC4)c4nc(CCc5ccc6ccccc6n5)cn34)cc2[nH]1
Ans: 7.48

Q: Return pIC50 for the following molecule: CN1c2cc(-c3cnc(N4CCOCC4)c4nc(/C=C/c5ccc6ccccc6n5)cn34)ccc2NS1(=O)=O [Cpd 43, trifluoroacetic acid salt]
Ans: 8.15

Q: Return pIC50 for the following molecule: c1ccc2nc(OCc3cn4c(-c5cnc(N6CCNCC6)nc5)cnc(N5CCOCC5)c4n3)ccc2c1
Ans: 7.08

Q: Return pIC50 for the following molecule: CC(C)[C@H](Nc1ccc(-c2cnc(N3CCOCC3)c3nc(/C=C/c4ccc5ccccc5n4)cn23)cc1)C(=O)O [Cpd 15, trifluoroacetic acid salt]
Ans: 7.29

Q: Return pIC50 for the following molecule: NS(=O)(=O)c1ccc(-c2cnc(N3CCOCC3)c3nc(COc4ccc5ccccc5n4)cn23)cn1 [Cpd 86, trifluoroacetic acid salt]
Ans: 7.80

Q: Return pIC50 for the following molecule: O=c1ncn(-c2ccc(-c3cnc(N4CCOCC4)c4nc(/C=C/c5ccc6ccccc6n5)cn34)cc2)[nH]1
Ans: 7.82

Q: Return pIC50 for the following molecule: CC(C)[C@H](NC(=O)c1ccc(-c2cnc(N3CCOCC3)c3nc(CCc4ccc5ccccc5n4)cn23)cc1)C(=O)O [Cpd 34, trifluoroacetic acid salt]
Ans: 7.89
